conditions: in ethanol, 303.15 K
MEASURED QUANTITY: solubility (mole fraction)
Reply with the value as a number alone.

Qu. Find the recorded solubility (mole fraction) belonging to Cc1ccc(S(=O)(=O)NC(=O)NN2CC3CCCC3C2)cc1 (stereo unspecified) and report it.
Ans. 0.00203

----------
details: in sec-butanol, 293.15 K
MEASURED QUANTITY: solubility (mole fraction)
Answer using only a numeral; do not append any unit.

Qu. Value lookup for solubility (mole fraction); key = Cc1ccc(S(=O)(=O)NC(=O)NN2CC3CCCC3C2)cc1 (stereo unspecified)
Ans. 0.00106

----------
conditions: in ethanol, 313.15 K
MEASURED QUANTITY: solubility (mole fraction)

Qu. Given the molecule Cc1ccc(S(=O)(=O)NC(=O)NN2CC3CCCC3C2)cc1 (stereo unspecified) , what is its reported solubility (mole fraction)?
Ans. 0.00296

----------
settings: in toluene, 283.15 K
MEASURED QUANTITY: solubility (mole fraction)

Qu. Would you mind telling me what solubility (mole fraction) value was observed for Cc1ccc(S(=O)(=O)NC(=O)NN2CC3CCCC3C2)cc1 (stereo unspecified) ?
Ans. 0.000395

----------
conditions: in n-butanol, 303.15 K
MEASURED QUANTITY: solubility (mole fraction)
Output spec: single numeric token, no unit.

Qu. Return reported solubility (mole fraction); argument: Cc1ccc(S(=O)(=O)NC(=O)NN2CC3CCCC3C2)cc1 (stereo unspecified)
Ans. 0.00192

----------
details: in n-propanol, 318.15 K
MEASURED QUANTITY: solubility (mole fraction)
Give the value as a plain number.

Qu. Bench note: what solubility (mole fraction) did Cc1ccc(S(=O)(=O)NC(=O)NN2CC3CCCC3C2)cc1 (stereo unspecified) show?
Ans. 0.0035

----------
conditions: in ethanol, 278.15 K
MEASURED QUANTITY: solubility (mole fraction)
Please reply with the value in numeric form only.

Qu. So what does the record say about solubility (mole fraction) for Cc1ccc(S(=O)(=O)NC(=O)NN2CC3CCCC3C2)cc1 (stereo unspecified) ?
Ans. 0.000739

----------
details: in methanol, 318.15 K
MEASURED QUANTITY: solubility (mole fraction)
Quick one: just the number, no unit, thanks!

Qu. # solubility (mole fraction) lookup, item Cc1ccc(S(=O)(=O)NC(=O)NN2CC3CCCC3C2)cc1 (stereo unspecified)
Ans. 0.00497

----------
details: in DMF, 288.15 K
MEASURED QUANTITY: solubility (mole fraction)
Reply with the value as a number alone.

Qu. Value lookup for solubility (mole fraction); key = Cc1ccc(S(=O)(=O)NC(=O)NN2CC3CCCC3C2)cc1 (stereo unspecified)
Ans. 0.0684

----------
conditions: in methyl acetate, 313.15 K
MEASURED QUANTITY: solubility (mole fraction)
Please give the numeric answer without any surrounding text.

Qu. Data request, read-out solubility (mole fraction), for Cc1ccc(S(=O)(=O)NC(=O)NN2CC3CCCC3C2)cc1 (stereo unspecified)
Ans. 0.00838

----------
conditions: in acetone, 278.15 K
MEASURED QUANTITY: solubility (mole fraction)

Qu. I would be grateful if you could share the reported solubility (mole fraction) for Cc1ccc(S(=O)(=O)NC(=O)NN2CC3CCCC3C2)cc1 (stereo unspecified) .
Ans. 0.00883

----------
settings: in ethanol, 283.15 K
MEASURED QUANTITY: solubility (mole fraction)
# print the numeric value only

Qu. Entry Cc1ccc(S(=O)(=O)NC(=O)NN2CC3CCCC3C2)cc1 (stereo unspecified) has what solubility (mole fraction)?
Ans. 0.000911

Recorded values, source BigSolDB 2.1.
